- assayed.system: 17β-hydroxysteroid dehydrogenase type 3 (17β-HSD type 3) (Homo sapiens, UniProt P37058)
- Construct: expressed in transfected cells; host or cells: MCF-7
- Sequence (P37058 whole entry): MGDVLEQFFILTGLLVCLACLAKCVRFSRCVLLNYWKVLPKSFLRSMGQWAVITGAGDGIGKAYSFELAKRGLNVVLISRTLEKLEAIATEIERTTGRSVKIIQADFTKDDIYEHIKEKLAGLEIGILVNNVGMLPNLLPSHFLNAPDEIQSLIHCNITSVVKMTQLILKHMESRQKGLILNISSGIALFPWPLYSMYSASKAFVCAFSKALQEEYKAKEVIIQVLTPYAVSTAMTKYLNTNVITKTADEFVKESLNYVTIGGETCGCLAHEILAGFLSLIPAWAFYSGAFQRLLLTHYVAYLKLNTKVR
- method: Inhibition of 17β-HSD type 3 in MCF-7 cells stably expressing the isoenzyme (tritium labeled androstenedione conversion, HPLC)
- Assay type: cell-based
- protocol.conditions: MCF7; 10 μM test compound; MCF-7 cells expressing 17β-HSD type 3; 2 nM tritium labeled androstenedione; read-out: % Inhibition HSD3 10 μM
Classify as follows. Reported inhibition at 10 µM greater than or equal to 40%: Satisfied. Reported inhibition at 10 µM below: Not satisfied.

COc1cc(-c2nc3sc4c(O)cccc4c3c(=O)n2CC(C)C)c(Br)c(OC)c1OC; Satisfied
CCCCn1c(-c2cc(OC)c(OC)c(O)c2Br)nc2sc3c(O)c(Br)c(C)cc3c2c1=O; Not satisfied
COc1cc(-c2nc3sc4c(c3c(=O)n2Cc2ccccc2)CCCC4O)cc(OC)c1OC (stereo not drawn); Not satisfied
CCCc1nc2sc3c(O)cccc3c2c(=O)n1Cc1cc(Br)ccc1O; Not satisfied
CCCc1nc2sc3c(c2c(=O)n1Cc1cc(Br)ccc1OC)CCC(Br)C3=O (stereo not drawn); Not satisfied
CCCCn1c(-c2cc(OC)c(OC)c(OC)c2Br)nc2sc3c(c2c1=O)CC(C)C(Br)C3=O (stereo not drawn); Not satisfied
CCCc1nc2sc3c(c2c(=O)n1Cc1ccco1)CCCC3=O; Satisfied
O=C(OCCn1c(-c2cccs2)nc2sc3c(c2c1=O)CCCC3=O)c1cccs1; Satisfied
COc1cc(-c2nc3sc4c(c3c(=O)n2Cc2ccccc2)CCCC4)cc(OC)c1OC; Not satisfied
CCCCn1c(-c2cc(OC)c(OC)c(OC)c2Br)nc2sc3c(O)cc(C)cc3c2c1=O; Not satisfied
COCCn1c(-c2cc(OC)c(OC)c(OC)c2)nc2sc3c(c2c1=O)CCCC3=O; Not satisfied
COc1cc(-c2nc3sc4c(c3c(=O)n2Cc2cccnc2)CCCC4)cc(OC)c1OC; Not satisfied
O=c1c2c(nc(-c3ccccc3)n1Cc1ccccc1)sc1c(O)cccc12; Satisfied
COc1cc(-c2nc3sc4c(O)cccc4c3c(=O)n2Cc2ccccc2)c(Br)c(OC)c1OC; Satisfied
COc1ccc(-c2nc3sc4c(c3c(=O)n2Cc2ccccc2)CCCC4=O)cc1; Satisfied
CCCc1nc2sc3c(c2c(=O)n1Cc1ccccc1OC)CCCC3; Not satisfied
O=c1c2c(nc(-c3cccs3)n1Cc1ccccc1)sc1c(O)cccc12; Not satisfied
O=c1c2c3c(sc2nc(-c2cc(O)c(O)c(O)c2)n1-c1ccccc1)CCCC3; Not satisfied

---

- assayed.system: 17β-hydroxysteroid dehydrogenase type 3 (17β-HSD type 3) (Homo sapiens)
- Construct: expressed in transfected cells; host or cells: MCF-7
- method: Inhibition of 17β-HSD type 3 in MCF-7 cells stably expressing the isoenzyme (tritium labeled androstenedione conversion, HPLC)
- Assay type: cell-based
- protocol.conditions: 1 μM test compound; MCF-7 cells expressing 17β-HSD type 3; 2 nM tritium labeled androstenedione
measured.parameter: % Inhibition HSD3 1 μM (%)

O=c1c2c(nc(CCC3CCCC3)n1CCc1cccs1)sc1c(O)cccc12; 23.4
COCc1nc2sc3c(O)cccc3c2c(=O)n1CCc1cccs1; 21.7
CCCCC(CC)c1nc2sc3c(O)cccc3c2c(=O)n1CCCC (centres unmarked); 11.6
O=c1c2c(nc(CCc3ccccc3)n1Cc1ccccc1)sc1c(O)cccc12; 22.9
CCCCC(CC)c1nc2sc3c(O)cccc3c2c(=O)n1Cc1ccccc1 (centres unmarked); 12.4
O=c1c2c(nc(Cc3ccccc3)n1Cc1ccccc1)sc1c(O)cccc12; 16.6
CC(C)=Cc1nc2sc3c(O)cccc3c2c(=O)n1CCc1cccs1; 17.7
CCCCC(CC)c1nc2sc3c(O)cccc3c2c(=O)n1CCc1ccccc1 (centres unmarked); 12.4
CCCCn1c(CCC2CCCC2)nc2sc3c(O)cccc3c2c1=O; 13.3
CCCCC(CC)c1nc2sc3c(O)cccc3c2c(=O)n1CCc1cccs1 (centres unmarked); 13.9
COCc1nc2sc3c(O)cccc3c2c(=O)n1CCc1ccccc1; 19.3
